Assay name: in vitro
Test settings: rat, gh3-tre-luc cells, AC50 (uM) modified / 1000
Measure: CC50 at 24 h

Study these solved cases before continuing.
# Compound, CC50 at 24 h
measured = [
    ("COc1cccc(OC)c1C(=O)O", "> 90 µM"),
    ("CCCCOCCOC(=O)COc1ccc(Cl)cc1Cl", "> 90 µM"),
    ("CC(C)c1nnc2ccc(-c3ocnc3-c3cc(F)ccc3F)cn12", "> 90 µM"),
    ("C=CC(=O)N1CCOCC1", "> 90 µM"),
    ("CC(C)C(C)C", "> 90 µM"),
]

Item CCC(C)c1cccc(C(C)CC)c1O (stereo not drawn) has what recorded CC50 at 24 h? 72.2 µM

Would you mind telling me what CC50 at 24 h value was observed for CCCOc1ccc2nc(NC(=O)OC)sc2c1 ? 2.38 µM

Query: CC50 at 24 h; subject: O=S(=O)(O)c1cccc(S(=O)(=O)O)c1 [Disodium benzene-1,3-disulfonate] > 90 µM

Any idea what its CC50 at 24 h is? The compound is CCN(CC)C(=O)N[C@H]1C[C@@H]2c3cccc4[nH]cc(c34)C[C@H]2N(C)C1 [Terguride] > 50 µM
